- studySystem: Acetylcholinesterase (Homo sapiens)
- testSummary: Inhibition of human erythrocyte AChE using acetylthiocholine iodide as substrate preincubated for 6 mins followed by substrate addition measured up to 180 secs by Ellman's method
assayEndpoint: IC50 (nM)
// return numeric value only (unit: nM, not printed)

Answered cases to consult:
>>> obsvalue("Cc1cc(=O)oc2cc(OCCSC(=S)N3CCC(N4CCCCC4)CC3)ccc12")
1160
>>> obsvalue("Cc1cc(=O)oc2cc(OCCCCCCSC(=S)N3CCCCC3)ccc12")
610
>>> obsvalue("Cc1cc(=O)oc2cc(OCCSC(=S)N(C)C)ccc12")
10600
>>> obsvalue("Cc1cc(=O)oc2cc(OCCCSC(=S)N3CCCCC3)ccc12")
290
>>> obsvalue("Cc1cc(=O)oc2cc(OCCCCCSC(=S)N3CCCCC3)ccc12")
210
>>> obsvalue("Cc1cc(=O)oc2cc(OCCCCSC(=S)N3CCCCC3)ccc12")
27
>>> obsvalue("Cc1cc(=O)oc2cc(OCCSC(=S)N3CCCCC3)ccc12")
470
>>> obsvalue("Cc1cc(=O)oc2cc(OCCSC(=S)N3CCN(C(C)C)CC3)ccc12")
1990
>>> obsvalue("Cc1cc(=O)oc2cc(OCCSC(=S)N3CCCC3)ccc12")
890

Moving on to another compound below.
Which value of IC50 has been reported for CCN(CC)C(=S)SCCOc1ccc2c(C)cc(=O)oc2c1 in the records?
1940

----------
- studySystem: Acetylcholinesterase (Homo sapiens, UniProt P22303)
- Sequence (P22303 whole entry): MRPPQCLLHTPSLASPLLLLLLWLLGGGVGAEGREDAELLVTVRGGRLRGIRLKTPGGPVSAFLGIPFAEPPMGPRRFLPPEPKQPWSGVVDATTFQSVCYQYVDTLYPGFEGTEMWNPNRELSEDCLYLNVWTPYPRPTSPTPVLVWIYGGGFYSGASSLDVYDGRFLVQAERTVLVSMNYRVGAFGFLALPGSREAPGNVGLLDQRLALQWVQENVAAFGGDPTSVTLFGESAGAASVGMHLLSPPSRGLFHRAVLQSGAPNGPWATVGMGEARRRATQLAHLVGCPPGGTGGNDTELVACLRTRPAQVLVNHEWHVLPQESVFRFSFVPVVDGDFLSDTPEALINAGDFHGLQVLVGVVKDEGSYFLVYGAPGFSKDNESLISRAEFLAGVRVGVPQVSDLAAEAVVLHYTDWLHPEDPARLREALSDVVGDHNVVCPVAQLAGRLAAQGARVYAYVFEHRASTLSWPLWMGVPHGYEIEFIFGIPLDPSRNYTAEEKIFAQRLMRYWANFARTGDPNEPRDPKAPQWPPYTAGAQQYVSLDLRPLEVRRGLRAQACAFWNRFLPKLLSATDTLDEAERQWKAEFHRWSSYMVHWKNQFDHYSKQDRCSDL
assayEndpoint: Ki (nM)
// return numeric value only (unit: nM, not printed)

Which value of Ki has been reported for Cc1cc(=O)oc2cc(OCCCCSC(=S)N3CCCCC3)ccc12 in the records?
37.1

----------
- studySystem: UniProt:P06276
- Sequence (P06276 whole entry): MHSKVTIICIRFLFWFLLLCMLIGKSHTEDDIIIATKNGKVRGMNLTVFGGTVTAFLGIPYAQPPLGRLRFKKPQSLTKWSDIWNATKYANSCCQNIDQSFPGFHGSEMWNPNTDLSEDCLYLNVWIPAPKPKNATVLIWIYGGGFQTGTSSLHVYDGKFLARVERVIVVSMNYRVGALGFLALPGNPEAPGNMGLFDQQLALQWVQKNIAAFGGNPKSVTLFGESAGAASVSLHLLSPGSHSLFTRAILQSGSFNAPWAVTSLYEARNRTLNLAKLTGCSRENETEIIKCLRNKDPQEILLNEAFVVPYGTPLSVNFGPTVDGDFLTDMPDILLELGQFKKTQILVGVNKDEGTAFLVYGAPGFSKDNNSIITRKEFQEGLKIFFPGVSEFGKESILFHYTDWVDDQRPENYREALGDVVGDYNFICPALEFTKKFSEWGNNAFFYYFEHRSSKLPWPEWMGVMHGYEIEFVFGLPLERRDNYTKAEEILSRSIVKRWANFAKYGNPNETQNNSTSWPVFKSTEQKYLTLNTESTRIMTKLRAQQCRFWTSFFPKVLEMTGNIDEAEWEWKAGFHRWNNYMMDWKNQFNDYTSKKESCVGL
- testSummary: Inhibition of human serum BuChE at 10 uM using S-butyrylthiocholine iodide as substrate preincubated for 6 mins followed by substrate addition measured up to 180 secs by Ellman's method relative to control
- conditionInfo: probe S-butyrylthiocholine iodide
Listing of entries alongside the reported inhibition at 0.05 h, 10 µM.

>>> obsvalue("Cc1cc(=O)oc2cc(OCCCSC(=S)N3CCCCC3)ccc12")
"31.2%"
>>> obsvalue("Cc1cc(=O)oc2cc(OCCSC(=S)N(C)C)ccc12")
"< 5%"
>>> obsvalue("Cc1cc(=O)oc2cc(OCCCCCSC(=S)N3CCCCC3)ccc12")
"10.1%"

Which value of inhibition at 0.05 h, 10 µM has been reported for Cc1cc(=O)oc2cc(OCCSC(=S)N3CCN(C)CC3)ccc12 in the records?
< 5%

Which value of inhibition at 0.05 h, 10 µM has been reported for Cc1cc(=O)oc2cc(OCCSC(=S)N3CCN(C4CC4)CC3)ccc12 in the records?
< 5%

Which value of inhibition at 0.05 h, 10 µM has been reported for Cc1cc(=O)oc2cc(OCCSC(=S)N3CCN(C(C)C)CC3)ccc12 in the records?
28.1%

Which value of inhibition at 0.05 h, 10 µM has been reported for Cc1cc(=O)oc2cc(OCCSC(=S)N3CCCC3)ccc12 in the records?
< 5%

Which value of inhibition at 0.05 h, 10 µM has been reported for Cc1cc(=O)oc2cc(OCCCCSC(=S)N3CCCCC3)ccc12 in the records?
15.3%

Which value of inhibition at 0.05 h, 10 µM has been reported for Cc1cc(=O)oc2cc(OCCSC(=S)N3CCOCC3)ccc12 in the records?
< 5%

Which value of inhibition at 0.05 h, 10 µM has been reported for Cc1cc(=O)oc2cc(OCCSC(=S)N3CCC(N4CCCCC4)CC3)ccc12 in the records?
24.3%

Which value of inhibition at 0.05 h, 10 µM has been reported for CCN(CC)C(=S)SCCOc1ccc2c(C)cc(=O)oc2c1 in the records?
10.9%
